The reported measurements were obtained from PubChem BioAssay.

system: Neuregulin-1 EGF-like domain; test: small molecules binding NRG1 EGF domain – biochemical, small-molecule microarray, 635 nm fluorescence, primary screen (AID 1081); conditions: higher = more signal;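 note: binding of the protein to compounds printed on small-molecule microarray slides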
Please use MET whenever composite z-score is not below 1, and NOT MET whenever it is.

Answer whether composite z-score of `COc1ccc([Si](C)(C)[C@H]2[C@H](CCO)O[C@@]3(C(=O)N(Cc4cccc(N5CCOC5=O)c4)c4ccccc43)[C@@H]2C)cc1` is greater than or equal to 1.
NOT MET

Answer whether composite z-score of `C[C@@]1([C@@H](NC(=O)c2cccs2)c2ccc(-c3ccccc3)cc2)C[C@H]1C1CCCCC1` is greater than or equal to 1.
NOT MET

Answer whether composite z-score of Cc1cc(C)c(C(O)C2C=CC3C(=O)N(c4ccccc4)C(=O)C3N2Nc2ccc([N+](=O)[O-])cc2)c(C)c1 (stereo not drawn) is greater than or equal to 1.
MET

Answer whether composite z-score of `C=CCOC(=O)[C@@H]1[C@H]2C(=O)O[C@H](c3ccccc3)[C@H](c3ccccc3)N2[C@H](c2ccc(OCCOC(=O)[C@@H]3C[C@@H]4C(=O)N[C@@H](CCCCNC(C)=O)C(=O)N4[C@@H]3c3ccc(O)cc3)cc2)[C@@]12C(=O)Nc1ccc(I)cc12` is greater than or equal to 1.
MET

Answer whether composite z-score of `COC(=O)[C@@]1(Cc2ccccc2)[C@H]2c3cc(C(=O)N(C)C)n(Cc4ccccn4)c3C[C@H]2CN1C(=O)c1ccccc1` is greater than or equal to 1.
MET

Answer whether composite z-score of `COC(=O)C(CC#Cc1ccc2c(c1)[C@]1(C(=O)N2)[C@H](C(=O)N2CCc3cc(OC)c(OC)cc3C2)[C@H]2C(=O)O[C@H](c3ccccc3)[C@H](c3ccccc3)N2[C@@H]1c1ccc(OCCO)cc1)C(=O)OC` is greater than or equal to 1.
MET

Answer whether composite z-score of `O=C1O[C@@H](c2ccccc2)[C@@H](c2ccccc2)N2[C@@H](c3ccc(O)cc3)[C@]3(C(=O)Nc4ccc(C#CC5=CCCCC5)cc43)[C@@H](C(=O)Nc3nc4ccccc4s3)[C@H]12` is greater than or equal to 1.
MET

Answer whether composite z-score of `CCOC(=O)C[C@H]1[C@H](OC(=O)Cc2ccc3c(c2)OCO3)[C@@H](NC(=O)c2ccccc2)c2cc(OCCCO)ccc2N1C(=O)c1ccc2ccccc2n1` is greater than or equal to 1.
NOT MET

Answer whether composite z-score of `CC(C)(C)OC(=O)CC[C@@]1(C(=O)N2CCCCC2)N=C(c2ccc(OCCCO)cc2)O[C@@H]1c1ccccc1CN=[N+]=[N-]` is greater than or equal to 1.
MET
